Consider the following molecules and their measured log10(AUCt) readings.
method_notes: AUC (0 to t) in iv dosed C57BL/6 mouse measured up to 24 hrs by LC-MS/MS analysis
Type: ADME, organism-based
Design: time <=24
test_context: in vivo
Hello, just confirming the data are log10 of AUCt with units of µmol·min/L.

// solved cases for log10(AUCt) follow
CS(=O)(=O)NC(=O)CCc1cn(-c2ccc(C(F)(F)F)nc2)nc1-c1ccc(Cl)cc1	2.13
CS(=O)(=O)NC(=O)CCc1cn(-c2ccc(Br)cc2)nc1-c1cccnc1	1.49
CS(=O)(=O)NC(=O)CCc1cn(-c2ccc(Br)cc2)nc1-c1ccc(Cl)cc1	3.55
CS(=O)(=O)NC(=O)CCc1cn(-c2ccc(Cl)cc2)nc1-c1ccc(Cl)cc1	3.69

Next up:
Lab book: log10(AUCt) of `CS(=O)(=O)NC(=O)CCc1cn(-c2ccc(Br)cc2)nc1-c1ccncc1` noted as 1.18
